Value source: the supplement of paper PMC10567573

B1: ZBTB22 (parent)
chain: AVLAASSPYFHDQVLLKGMTSISL

# Variants of: B1
# protocol.notes: protein stability index of a GFP-peptide fusion (GPS, HEK-293T) (PSI 1-6); higher = more stable;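 further: lentivirally expressed fusions sorted by FACS into six bins by GFP to DsRed ratio, PSI derived from sequencing read proportions per bin multiplied by bin number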
# condition.description: c terminus: a fixed tail appended
endpoint: protein stability index
Response field accepts a number only; no unit should be typed.

Observe how each entry below is paired with its result.
sequence.text	endpoint	recorded.number
AVLAASSPYFHDQVLKKGMTSISL [L16K]	protein stability index	3
AVLAASSPYFHDQVLLKGMTSISV [L24V]	protein stability index	1.53
AVLAASSPYFHDQVLLKGCTSISL [M19C]	protein stability index	3.68
AVLAASSPYFHDQVLWKGMTSISL [L16W]	protein stability index	2.44
AVMAASSPYFHDQVLLKGMTSISL [L3M]	protein stability index	3.26

Give its protein stability index value. Item: AVLAASSPYFHDHVLLKGMTSISL [Q13H]
2.48

Give its protein stability index value. Item: AVLAASSPYFHDQVLLKGMTNISL [S21N]
2.11
